Experiment: Quantitative High-Throughput drug screen in 47 multiple myeloma cell lines against the NCATS MIPE library collection: OCIMY1_PLB cell viability assay (AID 1918979); note: nearly all actives have a fitted effect of over 35% in size
Conditions: OCI-MY1 myeloma viability, CellTiter-Glo ATP, 48 h; series mostly up to 45.8 µM
Inconclusive results are not listed. Active and inactive are the calls of the source. Calls come from the whole dose curve; as a rule, active = well fitted cell-killing curve with a large enough effect; inconclusive = small, poorly fitted or top-dose-only effect, or effect the other way; inactive = no such curve, though single readings can be large or run the other way.
The reply should be one of these categories: active, inactive

Here are 3 molecules together with their reported answers.
molecule | assigned_class
OC[C@@H](O)[C@@H](O)[C@H](O)[C@@H](O)CO | inactive
O=C(Nc1ccc(Oc2ccnc3[nH]ccc23)c(F)c1)c1cccn(-c2ccc(F)cc2)c1=O | inactive
CC(C=CC(=O)NO)=C[C@@H](C)C(=O)c1ccc(N(C)C)cc1 | active

Now for a further molecule.
Exercise: So what was the verdict on C[C@H]1O[C@H](O[C@H]2[C@H](O)[C@@H](O)[C@@H](O[C@H]3[C@H](O)[C@@H](O)C(O)O[C@H]3CO)O[C@H]2CO)[C@H](O)[C@@H](O)[C@H]1N[C@H]1C=C(CO)[C@@H](O)[C@H](O)[C@@H]1O (some centres undefined) in this test?
Solution: inactive

====

Test system: MCC-26
Assay: qHTS assay to identify novel small-molecules to repurpose for Merkel cell carcinoma treatment (AID 1296009); note: nearly all actives have a fitted effect of over 60% in size
Conditions: MCC and control cell lines, CellTiter-Glo viability, 72 h; series mostly up to 46 µM
Records with an inconclusive call do not appear. Active and inactive are the calls of the source. The call rests on the fitted dose curve; in most records, active means well fitted inhibition curve with a large enough effect; inconclusive means small, poorly fitted or top-dose-only effect; inactive means flat fitted curve, though single readings scatter.
The reply should be one of these categories: active, inactive

compound | tested_target | assigned_class
N=c1ccn2c(n1)O[C@H]1[C@@H](O)[C@@H](CO)O[C@H]12 | MCC-26 | inactive
CC(=O)[C@]1(O)Cc2c(O)c3c(c(O)c2[C@@H](O[C@H]2C[C@H](N)[C@@H](O)[C@H](C)O2)C1)C(=O)c1ccccc1C3=O | MCC-26 | active

Exercise: So what was the verdict on Cc1noc(-c2ccc(CSCCC(=O)O)cc2)c1NC(=O)OC(C)c1ccccc1Cl (centres undefined) in this test?
Solution: inactive

Exercise: So what was the verdict on "NC[C@H]1O[C@H](O[C@H]2[C@@H](O)[C@@H](O[C@H]3O[C@H](CO)[C@@H](O)[C@H](N)[C@@H]3O)[C@H](N)C[C@@H]2N)[C@H](N)C[C@H]1O" in this test?
Solution: inactive

====

Assay: qHTS of pediatric cancer cell lines to identify multiple opportunities for drug repurposing: Confirmatory screen for DAOY cells (AID 1347114); note: potency is the fitted concentration of half-maximal effect; nearly all actives have a fitted effect of over 65% in size
Conditions: DAOY medulloblastoma cells viability, cytotoxicity qHTS; series mostly up to 45.9 µM
Results filed as inconclusive are left out. Calls of active or inactive are those of the source. Calls follow the shape of the dose curve; as a rule, active = well fitted cell-killing curve with a large enough effect; inconclusive = small, poorly fitted or top-dose-only effect; inactive = no such curve, though single readings can be large or run the other way.
Reported Potency values are given for each entry in this list.

These solved cases illustrate the format of a correct answer.
sample_smiles | observation_type | reported_measurement
C=CC(=O)N1CCc2ccc(-n3c(=O)ccc4cnc5ccc(-c6cnn(C)c6)cc5c43)cc21 | Potency | 9.27 µM (active)
C[C@@H](Oc1ccc2[nH]nc(C=Cc3cnn(CCO)c3)c2c1)c1c(Cl)cncc1Cl | Potency | 18.5 µM (active)

Measured Potency of "O=C1NCCc2[nH]c(-c3ccncc3)cc21" : 4.14 µM (active)

Measured Potency of "CCS(=O)(=O)Nc1ccc2[nH]c(O)c(C(=Nc3ccc(CN4CCCCC4)cc3)c3ccccc3)c2c1" : 16.5 µM (active)

====

Target: Calcium and integrin-binding protein 1 (Homo sapiens)
Test: Primary qHTS for Identification of Calcium Integrin Binding Protein 1 (CIB1) Competitor (AID 1508620);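 note: GST tagged CIB1 binding a fluorescein labelled alphaIIb integrin peptide tracer; top concentration of the series differs between compounds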
Details: CIB1-GST / FITC-alphaIIb peptide fluorescence polarization; series mostly up to 57.7 µM
Results filed as inconclusive are left out. Activity calls are given as the source filed them. Calls come from the whole dose curve; as a rule, active = well fitted inhibition curve with a large enough effect; inconclusive = small, poorly fitted or top-dose-only effect; inactive = flat fitted curve, though single readings scatter.
observation_type: activity change, negative = inhibition

These solved cases illustrate the format of a correct answer.
compound | observation_type | reported_measurement
CC[C@@]1([C@@H]2O[C@@H]([C@H]3O[C@@](O)(CO)[C@H](C)C[C@H]3C)C[C@H]2C)CC[C@H]([C@]2(C)CC[C@]3(C[C@H](O)[C@@H](C)[C@@H]([C@@H](C)[C@@H](OC)[C@H](C)C(=O)O)O3)O2)O1 | activity change, negative = inhibition | inactive
COc1cc2c(cc1O)CCC1C2CC[C@@]2(C)C1CC[C@@H]2O (stereo partly drawn) | activity change, negative = inhibition | inactive
C=CCNc1c(O)cc2c(O)c1C[C@@H](C)C[C@H](OC)[C@@H](O)[C@@H](C)C=C(C)[C@H](OC(N)=O)[C@@H](OC)C=CC=C(C)C(=O)N2 | activity change, negative = inhibition | inactive
COc1ccc(Nc2nccc(NCCO)n2)cc1 | activity change, negative = inhibition | inactive
CC(=O)O[C@H]1C[C@@H]2CC[C@H]3[C@H]4C[C@H]([N+]5(C)CCCCC5)[C@@H](OC(C)=O)[C@@]4(C)CC[C@@H]3[C@@]2(C)C[C@H]1N1CCCCC1 | activity change, negative = inhibition | inactive

Measured activity change, negative = inhibition of "O=C(CCCCCCC(=O)Nc1cccnc1)NO" : inactive

Measured activity change, negative = inhibition of "COc1cc(OC)c(C=CS(=O)(=O)Cc2ccc(OC)c(NCC(=O)O)c2)c(OC)c1" : inactive

Measured activity change, negative = inhibition of CCCCCCCCCCCC(CC1OC(=O)C1CCCCCC)OC(=O)C(CC(C)C)NC=O (stereo not drawn) : inactive

====

Experiment: qHTS of pediatric cancer cell lines to identify multiple opportunities for drug repurposing: Primary screen for BT-12 cells (AID 1347101); note: nearly all actives have a fitted effect of over 25% in size; note: potency is the fitted concentration of half-maximal effect
Details: BT-12 viability, CellTiter-Glo luminescence, 48 h; series mostly up to 57.3 µM
Protocol: Drug repurposing or repositioning has been offered as a strategy for drug development in oncology programs. […] [1] Shen, M et al. Quantitative high-throughput phenotypic screening of pediatric cancer cell lines identifies multiple opportunities for drug repurposing. […] Cells were assayed in growth media at a density of 500-1,000 cells/well. […] After a 15 min incubation at room temperature, samples were analyzed for luminescence intensity using a ViewLux High-throughput CCD imager equipped with clear filters.
Records with an inconclusive call do not appear. Active and inactive are the calls of the source. Calls follow the shape of the dose curve; as a rule, active = well fitted cell-killing curve with a large enough effect; inconclusive = small, poorly fitted or top-dose-only effect; inactive = flat fitted curve, though single readings scatter.
observation_type: Potency

These solved cases illustrate the format of a correct answer.
compound | Potency
O=C1NC(O)CCN1[C@@H]1O[C@H](CO)[C@H](O)[C@H]1O (stereo partly drawn) | inactive
NC(=NCCCCCCN=C(N)N=C(N)Nc1ccc(Cl)cc1)N=C(N)Nc1ccc(Cl)cc1 | 13.7 µM (active)
CC(=O)N1CCN(c2ccc(OCc3nn(C)c(C)c3-c3cccc4c(CCCOc5cccc6ccccc56)c(C(=O)O)n(Cc5cccnc5)c34)cc2)CC1 | 2.43 µM (active)
CC(C)[C@H](CO)Nc1nc(Nc2cccc(Cl)c2)c2ncn(C(C)C)c2n1 | 21.7 µM (active)
CN[C@H]1[C@@H](O)[C@@H]2O[C@@H]3O[C@H](C)CC(=O)[C@]3(O)O[C@@H]2[C@@H](NC)[C@H]1O | 1.09 µM (active)

Measured Potency of "COC(=O)[C@@H]1CC2=CC(=O)CC[C@]2(C)[C@@]23O[C@@H]2C[C@@]2(C)[C@H](CC[C@@]24CCC(=O)O4)[C@@H]13" : inactive

Measured Potency of "CC[C@H]1OC(=O)[C@H](C)[C@@H](O[C@H]2C[C@@](C)(OC)[C@@H](O)[C@H](C)O2)[C@H](C)[C@@H](O[C@@H]2O[C@@H](C)C[C@H](N(C)C)[C@@H]2O)[C@](C)(O)C[C@@H](C)C(=O)[C@H](C)[C@@H](O)[C@]1(C)O" : inactive

Measured Potency of "COc1ccc(S(=O)(=O)Nc2cccnc2Nc2ccc(O)cc2)cc1" : 0.432 µM (active)

====

Test: qHTS of pediatric cancer cell lines to identify multiple opportunities for drug repurposing: Primary screen for OHS-50 cells (AID 1347103); note: nearly all actives have a fitted effect of over 40% in size; note: potency is the fitted concentration of half-maximal effect
Conditions: OHS-50 osteosarcoma viability, CellTiter-Glo luminescence, 48 h; series mostly up to 57.3 µM
Results filed as inconclusive are left out. Activity calls are given as the source filed them. The call rests on the fitted dose curve; in most records, active means well fitted cell-killing curve with a large enough effect; inconclusive means small, poorly fitted or top-dose-only effect; inactive means no such curve, though single readings can be large or run the other way.
observation_type: Potency

These solved cases illustrate the format of a correct answer.
molecule | observation_type | reported_measurement
C=CC(=O)Nc1ccc2ncnc(Nc3ccc(OCc4cccc(F)c4)c(Cl)c3)c2c1 | Potency | 4.3 nM (active)
C=CCNC1=C2C[C@@H](C)C[C@H](OC)[C@@H](O)[C@@H](C)C=C(C)[C@H](OC(N)=O)[C@@H](OC)C=CC=C(C)C(=O)NC(=CC1=O)C2=O | Potency | 1220 nM (active)
Cc1cc(Nc2ncc3c(n2)N(C)C(=O)N(c2cc(NC(=O)c4cccc(C(F)(F)F)c4)ccc2C)C3)n(C)n1 | Potency | 217 nM (active)
C[C@](Cc1c[nH]c2ccccc12)(NC(=O)OC1C2CC3CC(C2)CC1C3)C(=O)NC[C@H](NC(=O)CCC(=O)O)c1ccccc1 (some centres undefined) | Potency | inactive

# next molecule below
Measured Potency of "CCNC(=O)c1cc2c(-c3cc(OCCN4CCCC4)c(Cl)cc3Cl)nc(N)nc2s1" : 3850 nM (active)
